Values were extracted from patent US8093386B2.

Each record here notes measured pIC50.
Molecular target: MMP-2 (Homo sapiens)
Construct: gift of Prof; Gillian Murphy (Oncology Department, Cambridge University, UK)
Sequence (P08253 110-660): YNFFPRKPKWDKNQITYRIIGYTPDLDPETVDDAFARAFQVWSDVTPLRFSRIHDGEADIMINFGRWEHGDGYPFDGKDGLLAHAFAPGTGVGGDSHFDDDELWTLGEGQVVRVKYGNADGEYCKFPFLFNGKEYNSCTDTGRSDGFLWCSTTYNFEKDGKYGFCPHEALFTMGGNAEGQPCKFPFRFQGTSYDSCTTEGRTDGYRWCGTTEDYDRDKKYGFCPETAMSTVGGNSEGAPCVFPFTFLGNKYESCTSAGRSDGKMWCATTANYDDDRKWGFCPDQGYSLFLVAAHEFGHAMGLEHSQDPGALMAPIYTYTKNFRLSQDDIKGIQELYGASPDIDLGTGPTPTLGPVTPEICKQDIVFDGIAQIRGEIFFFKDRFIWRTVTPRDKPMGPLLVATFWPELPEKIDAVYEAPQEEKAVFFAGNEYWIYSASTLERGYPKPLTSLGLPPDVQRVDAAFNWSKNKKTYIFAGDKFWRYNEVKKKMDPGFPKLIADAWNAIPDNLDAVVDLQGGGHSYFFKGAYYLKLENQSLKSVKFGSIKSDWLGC
Test: In vitro fluorometric inhibition assay of MMPs: MMP-2
Format: biochemical
Details: Table II, cells without (*)
Scale note: pIC50 = -log10(concentration in M).

Worked cases, answers included:
| molecule | reported_property | quantitative_readout |
| --- | --- | --- |
| COc1ccc(-c2ccc(Sc3ccccc3CC(=O)NS(C)(=O)=O)cc2)cc1 | pIC50 | 5.27 |
| COc1ccc(-c2ccc(S(=O)(=O)c3ccccc3C(=O)NS(C)(=O)=O)cc2)cc1 | pIC50 | 4.65 |
| COc1ccc(-c2ccc(Sc3ccccc3C(C)C(=O)NS(C)(=O)=O)cc2)cc1 (stereo not shown) | pIC50 | 4.18 |

Let us examine a further case.
INPUT: Can you share its pIC50? I mean this molecule: COc1ccc(-c2ccc(Sc3ccccc3C(=O)NS(C)(=O)=O)cc2)cc1
OUTPUT: 4.38
